Hello, the source for this data is patent US9573969B2, in case you need it.

Experiment: high throughput solubility assay
Type: physicochemical
Details: buffer solution, thermodynamic from solid; phosphate Example itself; buffer (pH 6.8, pH 4.0 or FaSSIF) not given; 16-24 hours at room temperature
metric: solubility (µM)

As a guide, the following entries are already answered.
INSERT INTO measurements (record_smiles, scale_unit, reported_result) VALUES
  ('Cc1ccc(NC(=O)c2ccnc(C(C)(C)F)c2)cc1-c1cnc(OCCOP(=O)(O)O)c(N2CCOCC2)c1', 'µM', 936),
  ('Cc1ccc(NC(=O)c2ccnc(C(C)(C)F)c2)cc1-c1cc(OCCOP(=O)(O)O)nc(N2CCOCC2)c1', 'µM', 841);

I = Cc1ncc(NC(=O)c2cccc(C(F)(F)F)c2)cc1-c1cc(OCCOP(=O)(O)O)nc(N2CCOCC2)c1
II = Cc1ccc(NC(=O)c2cc(C(F)(F)F)ccn2)cc1-c1cc(OCCOP(=O)(O)O)nc(N2CCOCC2)c1
III = Cc1ccc(NC(=O)c2cccc(C(F)(F)F)c2)cc1-c1cc(OCCOP(=O)(O)O)nc(N2CCOCC2)c1
Incoming: Hello, I need these entries ordered by solubility, highest reading first. Thanks! Submit the labels in the order that the ranking request calls for.
Outgoing: I, II, III

A = Cc1ccc(NC(=O)c2cc(C(F)(F)F)ccn2)cc1-c1cc(OC[C@@H](O)COP(=O)(O)O)nc(N2CCOCC2)c1
B = Cc1ccc(NC(=O)c2ccnc(C(C)(F)F)c2)cc1-c1cc(OCCOP(=O)(O)O)nc(N2CCOC[C@H]2C)c1
Incoming: // select label with min value of measured solubility from [ A , B ] API: response body contains the label of the selected item.
Outgoing: B

a = Cc1ccc(NC(=O)c2ccnc(C(F)(F)F)c2)cc1-c1cc(OCCOP(=O)(O)O)nc(N2CCOC[C@H]2C)c1
b = Cc1ncc(NC(=O)c2cccc(C(F)(F)F)c2)cc1-c1cc(OCCOP(=O)(O)O)nc(N2CCOC[C@H]2C)c1
Incoming: // select label with min value of measured solubility from [ a , b ] API: response body contains the label of the selected item.
Outgoing: b
(b: 617 µM, a: 939 µM)

====

Assay: high throughput solubility assay
Type: physicochemical
Settings: buffer solution, thermodynamic from solid; buffer not stated
Protocol: Solubility of the compounds of the invention was assessed in a high throughput solubility assay: compounds were received as 10 mM DMSO solutions. The DMSO stock solution was then transferred into a microtiter plate. The DMSO solvent was dried with a solvent evaporator (GeneVac). After the addition of buffer solution (pH 6.8, pH 4.0 or FaSSIF), the plate was sealed and shaken for 16-24 hours at room temperature. […]
metric: solubility (µM)

a = Cc1ccc(NC(=O)c2ccnc(C(F)(F)F)c2)cc1-c1cc(OCCO)nc(N2CCOCC2)c1 [reference compound]
b = Cc1ccc(NC(=O)c2ccnc(C(F)(F)F)c2)cc1-c1cc(OCCOP(=O)(O)O)nc(N2CCOCC2)c1 [Example 1]
Incoming: Would you let me know which has the greater solubility value, a or b ? API: response body contains the label of the selected item.
Outgoing: b

====

Target: C-Raf (Homo sapiens, UniProt P04049, Y340E/Y341E)
Construct: His tag (implied by nickel chromatography) and/or StrepII tag; made in house; host or cells: Sf9 insect cells (baculovirus) for CRAF and h14-3-3 zeta; E. coli for MEK1
Sequence (P04049 whole entry Y340E/Y341E): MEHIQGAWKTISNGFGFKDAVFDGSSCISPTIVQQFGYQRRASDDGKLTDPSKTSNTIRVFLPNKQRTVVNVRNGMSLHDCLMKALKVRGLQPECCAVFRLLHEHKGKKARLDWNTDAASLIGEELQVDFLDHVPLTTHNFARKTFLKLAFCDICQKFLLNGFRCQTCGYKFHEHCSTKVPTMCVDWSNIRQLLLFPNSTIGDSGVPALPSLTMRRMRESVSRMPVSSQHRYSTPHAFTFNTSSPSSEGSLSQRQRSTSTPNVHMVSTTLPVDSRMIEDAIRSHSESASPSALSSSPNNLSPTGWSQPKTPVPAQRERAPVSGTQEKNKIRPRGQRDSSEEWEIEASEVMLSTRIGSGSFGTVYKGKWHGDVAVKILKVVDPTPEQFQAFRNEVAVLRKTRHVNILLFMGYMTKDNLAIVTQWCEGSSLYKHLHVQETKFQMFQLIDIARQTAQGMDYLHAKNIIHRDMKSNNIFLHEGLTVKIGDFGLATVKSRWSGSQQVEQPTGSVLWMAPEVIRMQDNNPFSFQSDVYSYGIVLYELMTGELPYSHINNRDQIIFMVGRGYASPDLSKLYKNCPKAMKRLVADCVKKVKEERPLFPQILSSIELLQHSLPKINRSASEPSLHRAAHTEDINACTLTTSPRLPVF
Sequence (P63104 whole entry partner): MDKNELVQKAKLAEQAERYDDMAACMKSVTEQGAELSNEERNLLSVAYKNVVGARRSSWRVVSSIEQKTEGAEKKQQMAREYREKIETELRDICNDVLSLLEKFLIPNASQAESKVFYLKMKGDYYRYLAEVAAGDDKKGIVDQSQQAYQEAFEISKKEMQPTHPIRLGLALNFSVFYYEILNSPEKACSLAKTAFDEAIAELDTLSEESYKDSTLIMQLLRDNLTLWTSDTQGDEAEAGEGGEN
Assay: In Vitro Raf Activity Determination (Alpha Screen, phosphorylation of kinase dead MEK1)
Format: biochemical
Conditions: c-Raf approximately 4 nM; ATP 1 μM; pre-incubation 60 minutes; reaction 1 hour at room temperature; read-out: C-Raf
metric: IC50 (nM)

I = Cc1ccc(NC(=O)c2ccnc(C(C)(F)F)c2)cc1-c1cc(OCCOP(=O)(O)O)nc(N2CCOC[C@H]2C)c1
II = Cc1ncc(NC(=O)c2cccc(C(F)(F)F)c2)cc1-c1cc(OCCOP(=O)(O)O)nc(N2CCOCC2)c1
III = Cc1ccc(NC(=O)c2ccnc(C(C)(C)F)c2)cc1-c1cc(OCCOP(=O)(O)O)nc(N2CCOCC2)c1
IV = Cc1ccc(NC(=O)c2ccnc(C(F)(F)F)c2)cc1-c1cnc(OCCOP(=O)(O)O)c(N2CCOCC2)c1
Incoming: Please list these compounds in decreasing order of IC50. Submit the labels in the order that the ranking request calls for.
Outgoing: III, I, II, IV

1 = Cc1ccc(NC(=O)c2cccc(C(F)(F)F)c2)cc1-c1cc(OCCOP(=O)(O)O)nc(N2CCOC[C@H]2C)c1
2 = Cc1ccc(NC(=O)c2ccnc(C(C)(C)F)c2)cc1-c1cc(OCCOP(=O)(O)O)nc(N2CCOC[C@H]2C)c1
3 = Cc1ccc(NC(=O)c2cc(C(F)(F)F)ccn2)cc1-c1cc(OCCOP(=O)(O)O)nc(N2CCOCC2)c1
Incoming: Hello, I need these entries ordered by IC50, highest reading first. Thanks! Submit the labels in the order that the ranking request calls for.
Outgoing: 1, 2, 3
(1: 6 nM, 2: 2 nM, 3: 0.02 nM)

====

Assay: high throughput solubility assay
Type: physicochemical
Settings: buffer solution, thermodynamic from solid; phosphate Example itself; buffer (pH 6.8, pH 4.0 or FaSSIF) not given; 16-24 hours at room temperature
metric: solubility (µM)

INSERT INTO measurements (record_smiles, scale_unit, reported_result) VALUES
  ('Cc1ccc(NC(=O)c2ccnc(C(C)(F)F)c2)cc1-c1cc(OCCOP(=O)(O)O)nc(N2CCOCC2)c1', 'µM', 635),
  ('Cc1ccc(NC(=O)c2ccnc(C(F)(F)F)c2)cc1-c1cnc(OCCOP(=O)(O)O)c(N2CCOCC2)c1', 'µM', 792),
  ('Cc1ccc(NC(=O)c2ccnc(C(C)(F)F)c2)cc1-c1cnc(OCCOP(=O)(O)O)c(N2CCOCC2)c1', 'µM', 897);

====

Target: C-Raf (Homo sapiens, UniProt P04049, Y340E/Y341E)
Construct: His tag (implied by nickel chromatography) and/or StrepII tag; made in house; host or cells: Sf9 insect cells (baculovirus) for CRAF and h14-3-3 zeta; E. coli for MEK1
Experiment: In Vitro Raf Activity Determination (Alpha Screen, phosphorylation of kinase dead MEK1)
Format: biochemical
Conditions: c-Raf approximately 4 nM; ATP 1 μM; pre-incubation 60 minutes; reaction 1 hour at room temperature; read-out: C-Raf
pIC50: −log10 of the molar value.
metric: pIC50

As a guide, the following entries are already answered.
INSERT INTO results (record_smiles, reported_result) VALUES
  ('Cc1ccc(NC(=O)c2ccnc(C(C)(C)F)c2)cc1-c1cnc(OCCOP(=O)(O)O)c(N2CCOCC2)c1', 9.40),
  ('Cc1ncc(NC(=O)c2cccc(C(F)(F)F)c2)cc1-c1cc(OCCOP(=O)(O)O)nc(N2CCOC[C@H]2C)c1', 9.15),
  ('Cc1ccc(NC(=O)c2cccc(C(F)(F)F)c2)cc1-c1cc(OCCOP(=O)(O)O)nc(N2CCOCC2)c1', 10.30),
  ('Cc1ncc(NC(=O)c2cccc(C(F)(F)F)c2)cc1-c1cnc(OCCOP(=O)(O)O)c(N2CCOCC2)c1', 10.70);

A = Cc1ccc(NC(=O)c2ccnc(C(F)(F)F)c2)cc1-c1cc(OCCOP(=O)(O)O)nc(N2CCOC[C@H]2C)c1
B = Cc1ccc(NC(=O)c2cc(C(F)(F)F)ccn2)cc1-c1cc(OC[C@@H](O)COP(=O)(O)O)nc(N2CCOCC2)c1
C = Cc1ccc(NC(=O)c2ccnc(C(C)(F)F)c2)cc1-c1cc(OCCOP(=O)(O)O)nc(N2CCOCC2)c1
D = Cc1ccc(NC(=O)c2ccnc(C(C)(F)F)c2)cc1-c1cnc(OCCOP(=O)(O)O)c(N2CCOCC2)c1
E = Cc1ccc(NC(=O)c2cccc(C(F)(F)F)c2)cc1-c1cnc(OCCOP(=O)(O)O)c(N2CCOCC2)c1
Incoming: Hello, I need these entries ordered by pIC50, highest reading first. Thanks! Submit the labels in the order that the ranking request calls for.
Outgoing: B, D, C, E, A
(B: 10.62, D: 10.40, C: 9.52, E: 9.00, A: 8.70)

====

Test: high throughput solubility assay
Format: physicochemical
Details: buffer solution, thermodynamic from solid; phosphate Example itself; buffer (pH 6.8, pH 4.0 or FaSSIF) not given; 16-24 hours at room temperature
Quick reference: solubility of the listed items.

As a guide, the following entries are already answered.
INSERT INTO assay_data (molecule, reported_result) VALUES
  ('Cc1ccc(NC(=O)c2cccc(C(F)(F)F)c2)cc1-c1cc(OCCOP(=O)(O)O)nc(N2CCOC[C@H]2C)c1 [Example 2]', '< 1000 µM'),
  ('Cc1ccc(NC(=O)c2ccnc(C(C)(C)F)c2)cc1-c1cc(OCCOP(=O)(O)O)nc(N2CCOC[C@H]2C)c1 [Example 11]', '< 1000 µM');

Attention now turns to another entry.
Form field solubility, entry Cc1ccc(NC(=O)c2cccc(C(F)(F)F)c2)cc1-c1cnc(OCCOP(=O)(O)O)c(N2CCOCC2)c1 [Example 16] : < 1000 µM
